Can you tell me viability for the items I'm about to list?
procedure.text: reversal of MRP1-mediated doxorubicin resistance, pilot screen, H69AR cells, doxorubicin co-treatment (AID 601)
condition.description: H69AR cells + 2 uM doxorubicin, CellTiter-Glo, 72 h; measured here: viability with 2 uM doxorubicin; at 10 µM; stronger effect = lower value
Answer with a number only, understood to be in %.

Enquiry: // viability lookup, key: O=S(=O)(NCCc1ccncc1)c1cc(Br)ccc1F
Return: 84.8

Enquiry: Name the reported viability value associated with the compound O=C(NCN1CCCCC1)c1cccnc1
Return: 107

Enquiry: I have this compound here, C1CNCCNCCNCCN1 , and I need its recorded viability.
Return: 95.5

Enquiry: Which viability value belongs to CCn1c(C)nc2cc(C(=O)OC(C(F)(F)C(F)F)C(F)(F)C(F)F)ccc21 ?
Return: 79.1

Enquiry: Requested field: viability. Item: CC(C)Cn1c2c(c(O)c(C(=O)Nc3ncccc3O)c1=O)CCCC2
Return: 63.1

Enquiry: What measured viability goes with CCNCc1cc2cc(C)ccc2[nH]c1=O ?
Return: 90.6

Enquiry: Endpoint output: viability of COC(=O)c1sccc1NC(=O)c1ccco1 . Value?
Return: 102

Enquiry: GET /values?readout=viability&item= COc1ccc(OC)c(-c2nc3c(C)n[nH]c(=O)c3[nH]2)c1
Return: 90.7

Enquiry: Need viability of Cc1cc2c(c(=O)n1C)C(Cc1ccccc1)C(C#N)=C(N)O2 (configuration not stated) , thanks.
Return: 85.6

Enquiry: Recorded viability of CC1CCN(c2nc3c(c(=O)n(C)c(=O)n3C)n2Cc2ccccc2)CC1 , please.
Return: 47

Enquiry: What does the data say about its viability? Entry: CCOC(=O)CN1C2=NCCN2c2ccccc21
Return: 88.1

Enquiry: Look at this compound and give its reported viability. COc1ccc(C(NC(C)=O)c2ccc3cccnc3c2O)c(OC)c1 (configuration not stated)
Return: 45.1

Enquiry: Entry CS(=O)(=O)N1CCC(C(=O)NCCC2=CCCCC2)CC1 : reported viability = ?
Return: 79.6

Enquiry: Item under review: COc1ccccc1-n1cnnc1SCC(=O)c1ccc[nH]1 . Reported viability?
Return: 98.1

Enquiry: Quick one: viability for Nc1ncnc2oc(-c3ccco3)c(-c3ccco3)c12 ?
Return: 68.4

Enquiry: # lookup: viability of Cc1ccccc1Nc1nc(N)nc(CSCc2c(C)noc2C)n1
Return: 98.2

Enquiry: Find the recorded viability belonging to CCCSC1=C(C#N)C(c2ccccc2OCC)CC(=O)N1 (configuration not stated) and report it.
Return: 93.3

Enquiry: State the recorded viability for this entry: COc1ccccc1OCCCn1c(=O)oc2ccccc21
Return: 86.3

Enquiry: Return reported viability; argument: COc1cc(C2c3c(oc4c(C)cc(C)cc4c3=O)C(=O)N2Cc2cccnc2)ccc1O (configuration not stated)
Return: 77.6

Enquiry: Entry under review: O=C(CN1CCC(c2nc3ccccc3s2)CC1)NCc1cccs1 . Reported viability?
Return: 88.6

Enquiry: Reported viability for O=C(CSc1nc2cc(Cl)ccc2s1)N1CCN(C(=O)c2ccco2)CC1 : what is it?
Return: 99.5

Enquiry: Report viability for CC(=O)c1ccc(N2CCN(C(=O)c3cc(C)on3)CC2)cc1 please.
Return: 98.9

Enquiry: Name the recorded viability for COc1ccccc1N(CC(=O)NC1CCCC1)C(=O)c1csnn1 .
Return: 57.5

Enquiry: Dear colleague, I am looking for the recorded viability of the following compound: CC(C)(C)C(=O)NC1CCN(C(=O)N2CCCC2)CC1
Return: 83.2

Enquiry: So what's the measured viability for this one? O=C(Nc1cccc(NC(=O)c2ccco2)c1)c1ccc2c(c1)OCO2
Return: 86.8

Enquiry: Find the recorded viability belonging to O=S(=O)(Nn1cnnc1)c1ccccc1Cl and report it.
Return: 92.7

Enquiry: Could you share which viability value was measured for CCN(CC(=O)NCc1cccs1)C(=O)c1cc(S(=O)(=O)N2CCOCC2)ccc1C ?
Return: 88.3

Enquiry: Recorded viability for Cc1onc(-c2ccccc2)c1C(=O)NCCN1CCOCC1 , please?
Return: 87.9

Enquiry: Would you kindly share the measured viability for O=C(CCNS(=O)(=O)c1ccc(Br)s1)N1CCCCC1 ?
Return: 86.5

Enquiry: May I ask what viability has been recorded for COC(=O)COc1ccc(C(=O)OC)cc1 ?
Return: 97.4

Enquiry: Entry under review: Cc1ccc2nc(NC(=O)C3CCN(S(=O)(=O)c4cccc5nsnc45)CC3)sc2c1 . Reported viability?
Return: 76.5

Enquiry: Endpoint output: viability of O=P(O)(O)C(O)C(F)(F)C(F)(F)C(F)(F)C(F)F (configuration not stated) . Value?
Return: 98.1

Enquiry: Param item = Cc1cc(NC(=O)c2cc(-c3ccco3)on2)n(-c2ccccc2)n1 ; retrieve measured viability.
Return: 92.6

Enquiry: Would you mind telling me what viability value was observed for O=C(CCN1C(=O)c2ccccc2C1=O)N1CCN(C(=O)c2ccccc2)CC1 ?
Return: 92.3

Enquiry: Name the reported viability value associated with the compound N=c1ncn(CC(O)CN2CCOCC2)c2nc(N3CCOCC3)[nH]c12 (configuration not stated)
Return: 86.2

Enquiry: Sample CCN=C1SC(CC(=O)Nc2ccccc2OCC)C(=O)N1CC (configuration not stated) — what was its viability?
Return: 86.4

Enquiry: May I ask what viability has been recorded for Cn1c(=O)c2c(nc(-n3ccnc3)n2C)n(C)c1=O ?
Return: 92.7

Enquiry: Entry CCOc1cc(C(=O)Nc2c3c(nn2C(C)(C)C)CS(=O)C3)cc(OCC)c1OCC (configuration not stated) has what viability?
Return: 93.7

Enquiry: May I ask what viability has been recorded for Cc1cc(Br)c(S(=O)(=O)n2nnc3ccccc32)cc1C ?
Return: 85.8

Enquiry: Query: viability; subject: Cn1c(SCC(=O)c2ccc(-c3ccccc3)cc2)nnc1-c1ccco1
Return: 91.1

Enquiry: Please report the recorded viability for O=C(NCc1ccco1)Nc1ccc2nsnc2c1 .
Return: 23.2

Enquiry: Which viability value is on record for CN1CC=C2C(C#N)=C(N)C(C#N)(C#N)C(Cc3ccccc3)C2C1 (configuration not stated) ?
Return: 87.5

Enquiry: // query viability value for entry CC1(C)CC(=O)CC(=Nc2ccc(C(=O)O)cc2)C1
Return: 92.1

Enquiry: Query (compound): Cn1c2c(c(=O)n(C)c1=O)C(NC(=O)C(C)(C)C)(C(F)(F)F)C(=O)N2 (configuration not stated) ; field requested: viability
Return: 81.3

Enquiry: Name the recorded viability for CCOc1cc2[nH]c(=O)n(CCCCC(=O)NCc3ccco3)c(=O)c2cc1OCC .
Return: 95.3

Enquiry: For the compound shown here, CCN1C(=O)C2(C(C#N)=C(N)Oc3n[nH]c(C(C)C)c32)c2ccccc21 (configuration not stated) , give the reported viability.
Return: 90.2

Enquiry: # get_value(readout='viability', item= COc1ccccc1N1CCN(Cc2nc(N)nc(Nc3ccc(C)c(Cl)c3)n2)CC1 )
Return: 65.1

// data source = PubChem BioAssay
